System: HIVIIIB
Experiment: HIV-1 replication in MT2 cell line without human serum (RT activity in supernatant)
Type: cell-based
Details: Human immunodeficiency virus 1, 120 h, MT2 cells, day 5 after infection, average if tested more than once, read-out: MT2 (HIVIIIB) IC50 range
pIC50: −log10 of the molar value.
Can you tell me pIC50 for the items I'm about to list?

For orientation, consider the following solved cases.
C=C(C)[C@@H]1CC[C@]2(NC(=O)OCc3ccccc3)CC[C@]3(C)[C@H](CC[C@@H]4[C@@]5(C)CC[C@H](OC(=O)CC(C)(C)C(=O)O)C(C)(C)[C@@H]5CC[C@]43C)[C@@H]12; > 6.70
C=C(C)[C@@H]1CC[C@]2(NC(=O)CCN3CCCC3)CC[C@]3(C)[C@H](CC[C@@H]4[C@@]5(C)CC[C@H](OC(=O)CC(C)(C)C(=O)O)C(C)(C)[C@@H]5CC[C@]43C)[C@@H]12; > 6.70
C=C(C)[C@@H]1CC[C@]2(NC(=O)NCc3ccccc3)CC[C@]3(C)[C@H](CC[C@@H]4[C@@]5(C)CC[C@H](OC(=O)CC(C)(C)C(=O)O)C(C)(C)[C@@H]5CC[C@]43C)[C@@H]12; > 6.70

Sure, the documented pIC50 for C=C(C)[C@@H]1CC[C@]2(NC(=O)C(C)C)CC[C@]3(C)[C@H](CC[C@@H]4[C@@]5(C)CC[C@H](OC(=O)CC(C)(C)C(=O)O)C(C)(C)[C@@H]5CC[C@]43C)[C@@H]12 is > 6.70

###

System: HIVIIIB
Test: HIV-1 replication in MT2 cell line without human serum (RT activity in supernatant)
Assay type: cell-based
Settings: Human immunodeficiency virus 1, 120 h, MT2 cells, day 5 after infection, average if tested more than once, read-out: MT2 (HIVIIIB) IC50 range
Can you tell me IC50 for the items I'm about to list?

C=C(C)[C@@H]1CC[C@]2(NC(=O)NC)CC[C@]3(C)[C@H](CC[C@@H]4[C@@]5(C)CC[C@H](OC(=O)CC(C)(C)C(=O)O)C(C)(C)[C@@H]5CC[C@]43C)[C@@H]12; < 199 nM

// for each compound below, give its IC50
1. C=C(C)[C@@H]1CC[C@]2(NC(N)=O)CC[C@]3(C)[C@H](CC[C@@H]4[C@@]5(C)CC[C@H](OC(=O)CC(C)(C)C(=O)O)C(C)(C)[C@@H]5CC[C@]43C)[C@@H]12
2. C=C(C)[C@@H]1CC[C@]2(NC(=O)Cc3ccccc3)CC[C@]3(C)[C@H](CC[C@@H]4[C@@]5(C)CC[C@H](OC(=O)CC(C)(C)C(=O)O)C(C)(C)[C@@H]5CC[C@]43C)[C@@H]12

Response line:
["< 199 nM", "< 199 nM"]

###

Test system: HIVIIIB
Assay: HIV-1 replication in MT2 cell line without human serum (RT activity in supernatant)
Type: cell-based
Details: Human immunodeficiency virus 1, 120 h, MT2 cells, day 5 after infection, average if tested more than once, read-out: MT2 (HIVIIIB) IC50 range
quantity-name: IC50

C=C(C)[C@@H]1CC[C@]2(NC(=O)N[C@@H](C(=O)O)C(C)C)CC[C@]3(C)[C@H](CC[C@@H]4[C@@]5(C)CC[C@H](OC(=O)CC(C)(C)C(=O)O)C(C)(C)[C@@H]5CC[C@]43C)[C@@H]12 [Cpd 11-4]; < 199 nM

Hey, HIVIIIB data for C=C(C)[C@@H]1CC[C@]2(NC(=O)C(=O)OC)CC[C@]3(C)[C@H](CC[C@@H]4[C@@]5(C)CC[C@H](OC(=O)CC(C)(C)C(=O)O)C(C)(C)[C@@H]5CC[C@]43C)[C@@H]12 [Cpd 13-2] : IC50 came out at < 199 nM
